- Target entity: NADPH oxidase 4 (Homo sapiens) (UniProt Q9NPH5)
- Sequence (Q9NPH5 whole entry, looked up): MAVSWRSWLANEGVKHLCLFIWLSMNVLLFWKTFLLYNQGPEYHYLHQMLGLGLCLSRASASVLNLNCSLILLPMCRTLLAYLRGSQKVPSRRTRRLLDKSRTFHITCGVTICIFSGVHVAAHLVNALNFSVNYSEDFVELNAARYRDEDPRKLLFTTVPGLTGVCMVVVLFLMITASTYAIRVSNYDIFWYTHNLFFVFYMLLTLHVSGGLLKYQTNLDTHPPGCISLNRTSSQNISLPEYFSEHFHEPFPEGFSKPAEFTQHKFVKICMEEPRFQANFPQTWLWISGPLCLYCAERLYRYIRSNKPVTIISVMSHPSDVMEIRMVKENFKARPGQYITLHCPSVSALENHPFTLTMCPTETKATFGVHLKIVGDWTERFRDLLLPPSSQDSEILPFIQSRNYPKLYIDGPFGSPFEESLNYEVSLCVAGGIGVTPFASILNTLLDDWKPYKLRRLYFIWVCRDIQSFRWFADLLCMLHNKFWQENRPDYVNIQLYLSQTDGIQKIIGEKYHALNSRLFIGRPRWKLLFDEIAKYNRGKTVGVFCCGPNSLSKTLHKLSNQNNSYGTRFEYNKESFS
- Protocol description: compounds shifting NOX4 Amplex Red fluorescence – cell-based, HEK293-NOX4, tetracycline-induced, NOX inhibitor project, primary screen (AID 1160)
- Condition context: HEK293-NOX4, Amplex Red H2O2 fluorescence, 45 min; higher = more signal, called active from +8 up or from −8 down
Experimental readout: z-score
// no unit string in output, number only

Previously resolved entries follow.
- Molecule: "COc1ccc([Si](C)(C)[C@@H]2[C@@H](CC(=O)N3Cc4ccccc4C[C@H]3CO)O[C@]3(C(=O)N(Cc4cccc(N5CCC5=O)c4)c4ccccc43)[C@H]2C)cc1"
  z-score: 0.912
- Molecule: "C=CC[C@]1(C(N)=O)N=C(c2ccc(OCCCO)cc2)O[C@H]1c1ccccc1"
  z-score: 0.676
- Molecule: "Cc1ccc(S[C@]2(C(=O)O)CC(=O)N(C(C)C)[C@@H]2c2ccc(CO)cc2)cc1"
  z-score: -0.716
- Molecule: "CO[C@H]1O[C@H](CO)[C@@H](OC(=O)Nc2ccccc2)[C@@H]2OC(=O)[C@@H](Cc3ccc4ccccc4c3)C/C=C/C[C@H](Cc3ccc4ccccc4c3)C(=O)O[C@@H]12"
  z-score: 0.884

# z-score of O=C1OCCC=C[C@H]2OC34C=CCN(c5ccc(Cl)cc5)C(=O)[C@H]3N(CCCO)C(=O)[C@@H]4C12 (some centres not stated) = -0.818

# z-score of "CC(C)NC(=O)[C@@]1(Cc2ccccc2I)c2ccccc2C(=O)N(Cc2ccccc2Cl)[C@H]1c1ccc(CO)cc1" = 0.904

# z-score of "CO[C@H]1O[C@H](CO)[C@@H](OC(=O)Nc2ccc(Oc3ccccc3)cc2)[C@H](OC(=O)Nc2ccc3c(c2)OCO3)[C@@H]1OC(=O)Nc1ccc2c(c1)OCO2" = -0.397
